protocol-notes: tissue distribution after single and repeated administration
Assay type: in vivo, mice
study-conditions: male, C57BL/6, mouse, lung, iv, 20 mg/kg BW; after i.v. administration; read-out: first-pass uptake into the lung relative to respective plasma concentration
property-label: Kp

> print(dat)
                                   compound  result
1  C=C[C@@](C)(O)CC[C@H]1C(=C)C[C@H](OC(=O)NC)[C@H]2C(C)(C)CCC[C@]12C [SH045]     ~20

---

protocol-notes: plasma pharmacokinetics after single i.v. and p.o. administration, NCA
Type: in vivo, mice
study-conditions: male, C57BL/6, mouse, po; mice, plasma, single 20 mg/kg BW p.o., NCA
property-label: AUC(0-inf) (ng·h/mL)

> print(dat)
                               entry.smiles  property.label  readout.number
1  C=C[C@@](C)(O)CC[C@H]1C(=C)C[C@H](OC(=O)NC)[C@H]2C(C)(C)CCC[C@]12C      AUC(0-inf)             314

---

protocol-notes: plasma pharmacokinetics after single i.v. and p.o. administration, NCA
Type: in vivo, mice
study-conditions: male, C57BL/6, mouse, po; mice, plasma, single 20 mg/kg BW p.o., NCA; read-out: t1/2 (converted)
property-label: half-life

> print(dat)
                               entry.smiles  result
1  C=C[C@@](C)(O)CC[C@H]1C(=C)C[C@H](OC(=O)NC)[C@H]2C(C)(C)CCC[C@]12C  1.86 h

---

protocol-notes: plasma pharmacokinetics after single i.v. and p.o. administration, NCA
Format: in vivo, mice
study-conditions: male, C57BL/6, mouse, plasma, po; 2 mg/kg p.o., from AUCinf; read-out: oral bioavailability (F)
property-label: bioavailability (%)

> print(dat)
                               entry.smiles   property.label  readout.number
1  C=C[C@@](C)(O)CC[C@H]1C(=C)C[C@H](OC(=O)NC)[C@H]2C(C)(C)CCC[C@]12C  bioavailability              24

---

protocol-notes: time-dependent metabolization (stability) in HLM and IVIVE of hepatic clearance
Format: in vitro ADME, human
study-conditions: pH 7.4; human liver microsomes 0.5 mg/mL, 2 µM SH045, NADPH
property-label: half-life at 2 µM (min)

> print(dat)
                                   molecule     property.label  readout.number
1  C=C[C@@](C)(O)CC[C@H]1C(=C)C[C@H](OC(=O)NC)[C@H]2C(C)(C)CCC[C@]12C [SH045]  half-life at 2 µM            4.85

---

protocol-notes: plasma pharmacokinetics after single i.v. and p.o. administration, NCA
Assay type: in vivo, mice
study-conditions: male, C57BL/6, mouse, po; mice, plasma, single 2.0 mg/kg BW p.o.
Description: Analysis of SH045 in samples from plasma, tissue, urine, and microsomal incubations was performed as previously described. Details are described in Supplementary Materials SM2. […] Pharmacokinetics parameters for SH045 were determined based on non-compartmental model analysis (NCA) using the Phoenix WinNonlin Software 8.3 (Certara, Princeton, NJ, USA). […] The systemic total body clearance from plasma (CLp) was calculated as applied dose divided by AUCinf. […]
property-label: Tmax (min)

> print(dat)
                               entry.smiles  property.label  readout.number
1  C=C[C@@](C)(O)CC[C@H]1C(=C)C[C@H](OC(=O)NC)[C@H]2C(C)(C)CCC[C@]12C            Tmax              30

---

protocol-notes: tissue distribution after single and repeated administration
Type: in vivo, mice
study-conditions: male, C57BL/6, mouse, liver, iv, 20 mg/kg, 24 h after single (1×) 20 mg/kg BW i.v.; mean ± SEM; read-out: Concentration, Liver
property-label: concentration at 24 h (ng/g)

> print(dat)
                               entry.smiles  unit.of.measurement  readout.number
1  C=C[C@@](C)(O)CC[C@H]1C(=C)C[C@H](OC(=O)NC)[C@H]2C(C)(C)CCC[C@]12C                 ng/g            14.2

---

protocol-notes: plasma pharmacokinetics after single i.v. and p.o. administration, NCA
Format: in vivo, mice
study-conditions: male, C57BL/6, mouse, po; mice, plasma, single 2.0 mg/kg BW p.o., NCA; read-out: t1/2 (converted)
property-label: half-life

> print(dat)
                                   compound  result
1  C=C[C@@](C)(O)CC[C@H]1C(=C)C[C@H](OC(=O)NC)[C@H]2C(C)(C)CCC[C@]12C [SH045]  1.15 h

---

protocol-notes: plasma pharmacokinetics after single i.v. and p.o. administration, NCA
Type: in vivo, mice
study-conditions: male, C57BL/6, mouse, plasma, po; 20 mg/kg p.o., from AUCinf; read-out: oral bioavailability (F)
property-label: bioavailability (%)

> print(dat)
                               entry.smiles   property.label  readout.number
1  C=C[C@@](C)(O)CC[C@H]1C(=C)C[C@H](OC(=O)NC)[C@H]2C(C)(C)CCC[C@]12C  bioavailability              11

---

protocol-notes: plasma pharmacokinetics after single i.v. and p.o. administration, NCA
Assay type: in vivo, mice
study-conditions: male, C57BL/6, mouse, po; mice, plasma, single 2.0 mg/kg BW p.o.
property-label: Cmax (µg/mL)

> print(dat)
                                   molecule  readout.number
1  C=C[C@@](C)(O)CC[C@H]1C(=C)C[C@H](OC(=O)NC)[C@H]2C(C)(C)CCC[C@]12C [SH045]          0.0683

---

protocol-notes: plasma pharmacokinetics after single i.v. and p.o. administration, NCA
Assay type: in vivo, mice
study-conditions: male, C57BL/6, mouse, iv; mice, plasma, single 20 mg/kg BW i.v.
property-label: Tmax (min)

> print(dat)
                               entry.smiles  readout.number
1  C=C[C@@](C)(O)CC[C@H]1C(=C)C[C@H](OC(=O)NC)[C@H]2C(C)(C)CCC[C@]12C              15

---

protocol-notes: plasma pharmacokinetics after single i.v. and p.o. administration, NCA
Type: in vivo, mice
study-conditions: male, C57BL/6, mouse, plasma, intravenous, oral; range over both doses and routes; read-out: mean half-life (t1/2)
Protocol: Analysis of SH045 in samples from plasma, tissue, urine, and microsomal incubations was performed as previously described. Details are described in Supplementary Materials SM2. […] Pharmacokinetics parameters for SH045 were determined based on non-compartmental model analysis (NCA) using the Phoenix WinNonlin Software 8.3 (Certara, Princeton, NJ, USA). […] The systemic total body clearance from plasma (CLp) was calculated as applied dose divided by AUCinf. […]
property-label: half-life

> print(dat)
                               entry.smiles  property.label        result
1  C=C[C@@](C)(O)CC[C@H]1C(=C)C[C@H](OC(=O)NC)[C@H]2C(C)(C)CCC[C@]12C       half-life  1.2 to 2.4 h

---

protocol-notes: plasma pharmacokinetics after single i.v. and p.o. administration, NCA
Type: in vivo, mice
study-conditions: male, C57BL/6, mouse, po; mice, plasma, single 20 mg/kg BW p.o., NCA; read-out: CL/F
property-label: CL/F (mL/min/kg)

> print(dat)
                               entry.smiles  property.label  readout.number
1  C=C[C@@](C)(O)CC[C@H]1C(=C)C[C@H](OC(=O)NC)[C@H]2C(C)(C)CCC[C@]12C            CL/F            1060

---

protocol-notes: plasma pharmacokinetics after single i.v. and p.o. administration, NCA
Type: in vivo, mice
study-conditions: male, C57BL/6, mouse, iv; mice, plasma, single 2.0 mg/kg BW i.v., NCA
property-label: MRT (min)

> print(dat)
                               entry.smiles  readout.number
1  C=C[C@@](C)(O)CC[C@H]1C(=C)C[C@H](OC(=O)NC)[C@H]2C(C)(C)CCC[C@]12C              45

---

protocol-notes: plasma pharmacokinetics after single i.v. and p.o. administration, NCA
Assay type: in vivo, mice
study-conditions: male, C57BL/6, mouse, po; mice, plasma, single 2.0 mg/kg BW p.o., NCA; read-out: Vz/F
property-label: Vd/F (L/kg)

> print(dat)
                               entry.smiles  readout.number
1  C=C[C@@](C)(O)CC[C@H]1C(=C)C[C@H](OC(=O)NC)[C@H]2C(C)(C)CCC[C@]12C            39.5
